# TARGET: FGFR3 (Homo sapiens, UniProt P22607)
# Construct: made in house; host or cells: E. coli (BL21-derived), T7 phage
# Sequence (P22607 23-806): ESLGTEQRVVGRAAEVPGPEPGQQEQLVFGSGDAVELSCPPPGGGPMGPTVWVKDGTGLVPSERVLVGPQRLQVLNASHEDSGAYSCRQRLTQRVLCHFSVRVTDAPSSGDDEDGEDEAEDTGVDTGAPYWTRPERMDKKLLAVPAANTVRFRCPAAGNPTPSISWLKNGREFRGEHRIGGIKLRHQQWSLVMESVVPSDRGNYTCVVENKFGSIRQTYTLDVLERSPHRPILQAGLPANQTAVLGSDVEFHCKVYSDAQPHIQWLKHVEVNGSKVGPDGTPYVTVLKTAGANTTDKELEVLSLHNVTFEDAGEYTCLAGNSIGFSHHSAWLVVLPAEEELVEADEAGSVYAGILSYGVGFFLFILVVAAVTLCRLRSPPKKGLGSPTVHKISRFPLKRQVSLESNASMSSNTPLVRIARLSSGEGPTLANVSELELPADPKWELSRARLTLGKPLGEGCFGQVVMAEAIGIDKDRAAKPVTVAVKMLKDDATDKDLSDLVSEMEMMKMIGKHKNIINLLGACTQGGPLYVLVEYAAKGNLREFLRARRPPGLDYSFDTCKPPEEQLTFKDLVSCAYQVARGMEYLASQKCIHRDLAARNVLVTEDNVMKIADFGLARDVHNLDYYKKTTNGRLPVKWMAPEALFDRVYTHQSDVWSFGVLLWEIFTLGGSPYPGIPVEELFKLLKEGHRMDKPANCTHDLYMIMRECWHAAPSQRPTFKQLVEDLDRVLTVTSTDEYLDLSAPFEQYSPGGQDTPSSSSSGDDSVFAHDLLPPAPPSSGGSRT
# PROTOCOL: Kinase binding assay (kinase-tagged T7 phage, affinity beads, qPCR), Kd
# EXPERIMENTAL_PARAMETERS: read-out: FGFR3 (Kd nM)
Where a name gives a salt, the structure may show the parent alone.
PROPERTY: Kd

# COMPOUND, RESULT
records = [
    ("C[C@@H](Oc1ccc2[nH]nc(-c3cnc(N4CC(C)(CN5CCOCC5)C4)c(C#N)c3)c2c1)c1c(Cl)cncc1Cl", "1 to 50 nM"),
    ("C[C@@H](Oc1ccc2[nH]nc(-c3cnc(N4CC(N)(Cc5cnn(C)c5)C4)c(F)c3)c2c1)c1c(Cl)cncc1Cl", "1 to 50 nM"),
    ("C[C@@H](Oc1ccc2[nH]nc(-c3cnc(N4CC(N)(C(=O)N(C)C)C4)c(F)c3)c2c1)c1c(Cl)cncc1Cl", "1 to 50 nM"),
    ("CC(C)NC1(CC#N)CN(c2ncc(-c3n[nH]c4ccc(O[C@H](C)c5c(Cl)cncc5Cl)cc34)cc2F)C1", "1 to 50 nM"),
    ("COc1cc2[nH]nc(-c3cnc(N4CC(C)(CS(C)(=O)=O)C4)c(F)c3)c2cc1O[C@H](C)c1c(Cl)cncc1Cl", "1 to 50 nM"),
    ("CCC1(NCC2CC2)CN(c2ncc(-c3n[nH]c4ccc(O[C@H](C)c5c(Cl)cncc5Cl)cc34)cc2F)C1 [Example 247, dihydrochloride]", "1 to 50 nM"),
    ("CCCNC1(C)CN(c2ccc(-c3n[nH]c4ccc(O[C@H](C)c5c(Cl)cncc5Cl)cc34)cn2)C1", "1 to 50 nM"),
    ("C[C@@H](Oc1cc2c(-c3cnc(N4CC(C)(N5CCOCC5)C4)c(F)c3)n[nH]c2cc1F)c1c(Cl)cncc1Cl", "1 to 50 nM"),
    ("COc1cc2[nH]nc(-c3cnc(N4CC(C)(NCC(C)(C)O)C4)c(F)c3)c2cc1O[C@H](C)c1c(Cl)cncc1Cl", "1 to 50 nM"),
    ("C[C@@H](Oc1ccc2[nH]nc(-c3ccc(N4CC(C)(N5CC(C)(O)C5)C4)nc3)c2c1)c1c(Cl)cncc1Cl", "1 to 50 nM"),
    ("C[C@@H](Oc1cc2c(-c3cnc(N4CC(C)(CN5CCCC5)C4)c(C#N)c3)n[nH]c2cc1F)c1c(Cl)cncc1Cl", "1 to 50 nM"),
    ("C[C@@H](Oc1ccc2[nH]nc(-c3cnc(N4CC(N)(Cc5ccn(C)n5)C4)c(F)c3)c2c1)c1c(Cl)cncc1Cl", "1 to 50 nM"),
    ("CC(C)NC1(C)CN(c2ncc(-c3n[nH]c4ccc(O[C@H](C)c5c(Cl)cncc5Cl)cc34)cc2C#N)C1", "1 to 50 nM"),
    ("C[C@@H](Oc1ccc2[nH]nc(-c3cnc(N4CC(C)(NCCF)C4)c(F)c3)c2c1)c1c(Cl)cncc1Cl", "1 to 50 nM"),
]
